# reported pIC50; entries follow
System: NIH/3T3 cells
ASSAY REMARKS: Antiproliferative activity, MTT assay, NIH/3T3
Type: cell-based
CONDITIONS USED: NIH3T3, mouse fibroblast, mean ± SD
Method: The antiproliferative effect of monothiooxalamides 1a–d and 2a–d was assessed in MCF-7 (human breast cancer cell line with estrogen, progesterone, and glucocorticoid receptors), MDA-MB-231 (triple-negative human breast cancer), MCF-10A (non-tumorigenic human mammary epithelial cell line), and NIH/3T3 (mouse fibroblast). The cytotoxicity is expressed as IC50 values in micromolar concentrations, Table 4. […] Several studies have evaluated 2-aminobenzothiazole derivatives against various cell lines. […]
# pIC50: negative log10 of molar concentration; output just the value

MOLECULE | pIC50
CN(Cc1cnc2nc(N)nc(N)c2n1)c1ccc(C(=O)N[C@@H](CCC(=O)O)C(=O)O)cc1 [MTX, methotrexate, reference compound] | 4.59
COc1ccc(CNC(=S)C(=O)Nc2nc3ccc(C)cc3s2)cc1 | 4.51
O=C(Nc1nc2ccccc2s1)C(=S)NCc1ccccc1 | 4.54
Cc1ccc2nc(NC(=O)C(=S)NCc3ccccc3)sc2c1 | 4.66

Next:
// returns reported pIC50 for input COc1ccc(CNC(=S)C(=O)Nc2nc3ccccc3s2)cc1 4.39

Entry source: paper PMC12429841
